The reported numbers originate from patent US20240287124A1.

EXPERIMENTAL DETAILS: Aqueous solubility in PBS, pH 7.4
Assay type: physicochemical
REPORTED CONDITIONS: phosphate buffered saline, pH 7.4, aqueous buffer, thermodynamic from solid, pH 7.4 phosphate buffered saline, 24 hours, amorphous or crystalline material; read-out: Aqu. Solubility
PROPERTY NAME: solubility at 24 h (µg/mL)

Before answering, review these 2 worked examples.
{"COMPOUND SMILES": "C#C[C@]1(COC(=O)OCCCCCCCCC)O[C@@H](n2ccc3c(N)nc(Cl)nc32)C[C@@H]1O", "MEASUREMENT UNITS": "µg/mL", "RECORDED VALUE": 21}
{"COMPOUND SMILES": "C#C[C@]1(COC(=O)CCCC)O[C@@H](n2ccc3c(N)nc(Cl)nc32)C[C@@H]1O", "MEASUREMENT UNITS": "µg/mL", "RECORDED VALUE": 55}

[a] C#C[C@]1(COC(=O)c2ccccn2)O[C@@H](n2ccc3c(N)nc(Cl)nc32)C[C@@H]1O
[b] C#C[C@]1(CO)O[C@@H](n2ccc3c(N)nc(Cl)nc32)C[C@@H]1OC(=O)OC(CC)CC
## Task Hi team, can someone confirm which has the larger solubility at 24 h: a or b ? Thanks. Answer by stating the label of the chosen item.
## Result a
(a: 239 µg/mL, b: 69 µg/mL)

[a] C#C[C@]1(CO)O[C@@H](n2ccc3c(N)nc(Cl)nc32)C[C@@H]1OC(=O)OCc1oc(=O)oc1C
[b] C#C[C@]1(COC(=O)OCCCCC[C@@H]2SC[C@@H]3NC(=O)N[C@@H]32)O[C@@H](n2ccc3c(N)nc(Cl)nc32)C[C@@H]1OC(=O)OCCCCC[C@@H]1SC[C@@H]2NC(=O)N[C@@H]21
[c] C#C[C@]1(COC(=O)Cc2ccc(Br)cc2)O[C@@H](n2ccc3c(N)nc(Cl)nc32)C[C@@H]1O
[d] C#C[C@]1(CO)O[C@@H](n2ccc3c(NC(=O)Cc4ccccc4)nc(Cl)nc32)C[C@@H]1O
[e] C#C[C@]1(COC(=O)c2ccccc2)O[C@@H](n2ccc3c(N)nc(Cl)nc32)C[C@@H]1O
## Task Hello, I need these entries ordered by solubility at 24 h, highest reading first. Thanks! # answer = labels listed in requested order
## Result e, a, d, c, b
(e: 182 µg/mL, a: 122 µg/mL, d: 51 µg/mL, c: 24 µg/mL, b: 1.2 µg/mL)

[1] C#C[C@]1(COC(=O)CC2CCCCC2)O[C@@H](n2ccc3c(N)nc(Cl)nc32)C[C@@H]1O
[2] C#C[C@]1(COC(=O)CCCCCC)O[C@@H](n2ccc3c(N)nc(Cl)nc32)C[C@@H]1O
## Task Could you determine which record has the numerically smaller solubility at 24 h? Candidates: 1 and 2 Selection: enter the item's label.
## Result 2
(2: 57 µg/mL, 1: 124 µg/mL)

[I] C#C[C@]1(COC(=O)OCc2cc[nH]c(=O)c2)O[C@@H](n2ccc3c(N)nc(Cl)nc32)C[C@@H]1OC(=O)OCc1cc[nH]c(=O)c1
[II] C#C[C@]1(COC(=O)CCCc2ccccc2)O[C@@H](n2ccc3c(N)nc(Cl)nc32)C[C@@H]1O
## Task Looking at recorded values for solubility at 24 h, does I or II come in lower? // caller expects the label of the chosen entry
## Result II
(II: 37 µg/mL, I: 70 µg/mL)
